assay: Solubility of the compound by lyophilized solubility assay; format: physicochemical
result-type: solubility

>  <compound>
CC1CCCN1c1cccc(Nc2cc(-c3ccccc3)nn3ccnc23)n1 (stereo not drawn)

>  <result>
< 1 µg/mL

$$$$
>  <compound>
COc1ccc(Nc2nc(N3CCCC(C(=O)Nc4ccc(C(=O)O)cc4)C3)nc3scnc23)cc1OC (stereo not drawn)

>  <result>
< 1 µg/mL

$$$$
>  <compound>
CC1CCCN1c1cccc(Nc2cc(-c3cccc(CO)c3)nn3ccnc23)n1 (stereo not drawn)

>  <result>
< 1 µg/mL

$$$$
